Data provenance is ChEMBL document CHEMBL1122048.

Test system: CCRF-CEM
Procedure text: In vitro growth inhibitory activity against CCRF-CEM (human lymphoblastic leukemic) cells.
Assay type: functional
Conditions used: read-out: ID50 (the source's name)
Observation type: IC50

INSERT INTO measurements (compound, value_observed) VALUES
  ('COc1ccc(C(OCC(=O)C2=Cc3c(O)c4c(c(O)c3[C@@H](OC3CC(N)C(O)C(C)O3)C2)C(=O)c2c(OC)cccc2C4=O)(c2ccccc2)c2ccccc2)cc1 (some centres undefined)', '> 5 µM'),
  ('COc1ccc(C(OCC(=O)C2=Cc3c(O)c4c(c(O)c3[C@@H](OC3CC(NC(=O)C(F)(F)F)C(O)C(C)O3)C2)C(=O)c2c(OC)cccc2C4=O)(c2ccccc2)c2ccccc2)cc1 (some centres undefined)', '> 5 µM'),
  ('COc1cccc2c1C(=O)c1c(O)c3c(c(O)c1C2=O)C[C@@H](C(C)=O)CC3', '> 10 µM'),
  ('COc1cccc2c1C(=O)c1c(O)c3c(c(O)c1C2=O)C=C(C(C)=O)CC3', '> 10 µM');
